- Test system: HCT-116 human colon cancer xenografts
- protocol notes: Tumor growth inhibition of HCT-116 human colon cancer xenografts in nude mice
- Format: in vivo, Balb/c nude mice
- condition notes: Day 9; single IP injection (QD×1); D1 and D2 400 mg/kg, D3 350 mg/kg, D4 300 mg/kg
metric name: Tumor growth inhibition rate (TGI %)
Field: numeric (%). Do not append units.

>>> measured_result("CCCCOC(=O)Nc1ccn(C2OC(COC(=O)CCC(=O)OC[C@H]3O[C@@H](n4ccc(NC(=O)OCc5ccccc5)nc4=O)C(F)(F)[C@@H]3O)C(O)C2(F)F)c(=O)n1 (stereo in doubt)")
96.19
>>> measured_result("O=C(CCCC(=O)OC[C@H]1O[C@@H](n2ccc(NC(=O)OCc3ccccc3)nc2=O)C(F)(F)[C@@H]1O)OC[C@H]1O[C@@H](n2ccc(NC(=O)OCc3ccccc3)nc2=O)C(F)(F)[C@@H]1O")
97.86
>>> measured_result("CCCCOC(=O)Nc1ccn([C@H]2O[C@@H](COC(=O)CCC(=O)OC[C@H]3O[C@@H](n4ccc(NC(=O)OCCCC)nc4=O)C(F)(F)[C@@H]3O)[C@H](O)C2(F)F)c(=O)n1 (stereo in doubt) [Compound D2]")
94.79

// next entry
Problem: Recall the reported Tumor growth inhibition rate (TGI %) of CCCCOC(=O)Nc1ccn(C2OC(COC(=O)CCCC(=O)OC[C@H]3O[C@@H](n4ccc(NC(=O)OCCCC)nc4=O)C(F)(F)[C@@H]3OC(=O)OCCCC)C(OC(=O)OCCCC)C2(F)F)c(=O)n1 (stereo in doubt) [Compound D1] on HCT-116 human colon cancer xenografts and write it down.
Solution: 91.42
